- study_system: KRAS G12C (Homo sapiens (Human), UniProt P01116, C118A/G12C)
- Sequence (P01116 other isoform, or with tags, fused parts or gaps G12C/C118A): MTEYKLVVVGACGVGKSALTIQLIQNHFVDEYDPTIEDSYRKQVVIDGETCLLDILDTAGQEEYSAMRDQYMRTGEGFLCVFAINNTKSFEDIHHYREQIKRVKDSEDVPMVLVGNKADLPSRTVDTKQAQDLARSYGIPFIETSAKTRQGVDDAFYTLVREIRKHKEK
- experimental_details: 2 h coupled exchange assay
- Assay type: biochemical
- condition_context: Avg 2 h Coupled exchange IC50, 2 h compound pre-incubation, SOS-mediated nucleotide exchange
pIC50: −log10 of the molar value.
measured_endpoint: pIC50

{"compound": "C=CC(=O)N1CC2(CCN(c3nc4c(c(-c5c(C)c(Cl)cc6cnn(C)c56)c3C)CCN(C(C)C)C4)C2)C1 (single isomer, unassigned) [Example 12-24]", "measured_endpoint": "pIC50", "recorded_measurement": 7.30}

[P] C=CC(=O)N1CC2(CCN(c3nc4c(c(-c5cccc(F)c5O)c3C#N)C[C@H]3C[C@@H]4C3(C)C)C2)C1 (single isomer, unassigned) [Example 2-71]
[Q] C=CC(=O)N1CC2(CCN(c3nc4c(C)cccc4c(-c4c(C)ccc5[nH]ncc45)c3C#N)C2)C1
Input: Parameter check: reported pIC50 is higher for which label, P or Q ? Refer to your chosen entry by its label in the reply.
Output: Q

====

- study_system: KRAS G12C (Homo sapiens (Human), UniProt P01116, C118A/G12C)
- experimental_details: 2 h coupled exchange assay
- Type: biochemical
- condition_context: Avg 2 h Coupled exchange IC50, 2 h compound pre-incubation, SOS-mediated nucleotide exchange
pIC50: −log10 of the molar value.
measured_endpoint: pIC50

Look over these answered cases.
{"compound": "C=CC(=O)N1CC2(CCN(c3nc4c(c(-c5c(F)cccc5[C@H](C)O)c3C#N)C[C@H]3C[C@@H]4C3(C)C)C2)C1 (single isomer, unassigned)", "study_system": "KRAS G12C (Homo sapiens (Human), UniProt P01116, C118A/G12C)", "pIC50": 6.36}
{"compound": "C#CC(=O)N1CC2(CCN(c3nc4c(F)cccc4c(-c4c(C)ccc5[nH]ncc45)c3C#N)C2)C1", "study_system": "KRAS G12C (Homo sapiens (Human), UniProt P01116, C118A/G12C)", "pIC50": 6.49}
{"compound": "C=CC(=O)N1CC2(CCN(c3nc4c(c(-c5ccc(F)c6sc(N)nc56)c3C)CCC(C)(C)C4)C2)C1 (single isomer, unassigned) [Example 2-18]", "study_system": "KRAS G12C (Homo sapiens (Human), UniProt P01116, C118A/G12C)", "pIC50": 5.28}

[a] C=CC(=O)N1CC2(CCN(c3nc4c(c(-c5c(O)ccc6ccccc56)c3C#N)COC(C)(C)C4)C2)C1
[b] C=CC(=O)N1CC2(CCN(c3nc(-c4ccccc4F)c4ccn([C@H](CC(=O)NC)CC(C)C)c4n3)C2)C1 (single isomer, unassigned)
[c] C=CC(=O)N1CC2(CCN(c3nc4c(c(-c5cc(O)cc6ccccc56)c3C#N)COC(C)(C)C4)C2)C1 [Example 13-41]
[d] C=CC(=O)N1CC2(CCN(c3nc4c(F)cccc4c(-c4c(C)ccc5[nH]ncc45)c3C#N)C2)C1
[e] C=CC(=O)N1CC2(CCN(c3nc4c(c(-c5cc(O)c(F)c6ccccc56)c3C#N)COC(C)(C)C4)C2)C1 (single isomer, unassigned) [Example 13-77]
Input: Output the entries ranked by pIC50 from maximum down to minimum. Give the order by naming the labels one after another as requested.
Output: c, d, a, b, e

[a] C=CC(=O)N1CC2(CCN(c3nc4c(c(-c5cc(CO)ccc5Cl)c3C#N)C[C@H]3C[C@@H]4C3(C)C)C2)C1
[b] CN(C)C/C=C/C(=O)N1CC2(CCN(c3nc4c(c(-c5cc(O)cc6ccccc56)c3C#N)CC[C@H]3C[C@@H]43)C2)C1 (racemic) [Example 13-86]
[c] C=CC(=O)N1CC2(CCN(c3nc4c(c(-c5cc(O)ccc5C)c3C)CCC(C)(C)C4)C2)C1
[d] C=CC(=O)N1CC2(CCN(c3nc4c(c(-c5c(C)ccc6cnn(C)c56)c3C#N)C[C@H]3C[C@@H]4C3)[C@H]2C)C1 (single isomer, unassigned) [Example 13-32]
Input: Would you mind ranking these compounds by ascending pIC50? Give the order by naming the labels one after another as requested.
Output: d, b, a, c
